Attribution: patent US5093045A

System: phorboid receptor (PDBu receptor) of murine brain membranous fraction (BMF)
Method Summary: PDBu binding inhibiting activity (PBIA): inhibition of 3H-PDBu binding to murine brain membranous fraction
Design: species or system mouse
Test Settings: concentration 0.8 nM
Quantity Name: Inhibition (%) of binding of PDBu to its receptor

| Compound | Observed Result |
| --- | --- |
| CCCCCC/C=C\CCCCCCCC(=O)OCC(O)CO (stereo not shown) [1-Monopalmitolein] | 82 |

(a) CCCCCCCC/C=C\CCCCCCCC(=O)OCC(CO)OC(=O)CCCCCCC/C=C\CCCCCCCC (stereo not shown) [1,2-Diolein]
(b) CCCCCCCCCCCCCCCC(=O)OCC(COC(=O)CCCCCCCCCCCCCCC)OC(=O)CCCCCCCCCCCCCCC [Tripalmitin]
(c) CCCCC/C=C\C/C=C\CCCCCCCC(=O)OC[C@@H](O)CO [1-Monolinolein]
Query block: Order the entries by their reported Inhibition (%) of binding of PDBu to its receptor, beginning at the minimum. Would you mind listing the labels in the order asked for?
Result block: b, a, c
(b: -8%, a: 20%, c: 94%)

----------
Test system: phorboid receptor (PDBu receptor) of murine brain membranous fraction (BMF)
Method Summary: PDBu binding inhibiting activity (PBIA): inhibition of 3H-PDBu binding to murine brain membranous fraction
Parameters: species or system mouse
Test Settings: concentration 0.4 nM
Quantity Name: Inhibition (%) of binding of PDBu to its receptor

Below: 3 compounds and their reported Inhibition (%) of binding of PDBu to its receptor.
| Compound | Unit Spec | Observed Result |
| --- | --- | --- |
| CCCCCCCCCCCCCCCC(=O)OCC(COC(=O)CCCCCCCCCCCCCCC)OC(=O)CCCCCCCCCCCCCCC | % | -11 |
| CCCCC/C=C\C/C=C\C/C=C\C/C=C\CCCC(=O)OCC(O)CO (stereo not shown) | % | 91 |
| CC/C=C\C/C=C\C/C=C\CCCCCCCC(=O)OCC(O)CO (stereo not shown) | % | 74 |

(P) CCCCCCCCCCCCCC(=O)OCC(O)CO (stereo not shown)
(Q) CCCCC/C=C\C/C=C\CCCCCCCC(=O)OC[C@@H](O)CO
(R) CCCCCC/C=C\CCCCCCCC(=O)OCC(O)CO (stereo not shown)
(S) CCCCCCCCCCCCCC(=O)OCC(O)COC(=O)CCCCCCCCCCCCC
Query block: Hey, quick one: sort these by Inhibition (%) of binding of PDBu to its receptor, largest value first please. Kindly provide the labels arranged according to the requested ordering.
Result block: Q, R, S, P
(Q: 82%, R: 36%, S: 1%, P: 0%)

----------
Test system: phorboid receptor (PDBu receptor) of murine brain membranous fraction (BMF)
Method Summary: PDBu binding inhibiting activity (PBIA): inhibition of 3H-PDBu binding to murine brain membranous fraction
Design: species or system mouse
Test Settings: concentration 0.4 nM
Quantity Name: Inhibition (%) of binding of PDBu to its receptor

| Compound | Tested Target | Observed Result |
| --- | --- | --- |
| CCCCCCCCCCCC(=O)OCC(COC(=O)CCCCCCCCCCC)OC(=O)CCCCCCCCCCC | phorboid receptor (PDBu receptor) of murine brain membranous fraction (BMF) | 11 |
| CCCCCCCC/C=C\CCCCCCCC(=O)OCC(O)CO (centres unmarked) | phorboid receptor (PDBu receptor) of murine brain membranous fraction (BMF) | 21 |

(P) CCCCC/C=C\C/C=C\CCCCCCCC(=O)O
(Q) CCCCCCCCCCCCCC(=O)OCC(COC(=O)CCCCCCCCCCCCC)OC(=O)CCCCCCCCCCCCC
(R) OCC(O)CO
Query block: Please list these in order of increasing Inhibition (%) of binding of PDBu to its receptor. Thank you! Reply format: the labels, ordered as requested.
Result block: R, P, Q
(R: 0%, P: 10%, Q: 15%)
